Test system: PLA2
Assay: Anti-PLA2 activity (Table 6)
Type: biochemical
Settings: read-out: IC-50 Anti-PLA2 Activity
# IC50 values compiled below
Please state the figure in nM; there is no need to write the unit.

Some solved cases for reference:
Under PLA2: IC50 value of CCCCCCCC/C=C\CCCCCCCC(=O)OCC(COC(=O)CCCCCCC/C=C\CCCCCCCC)(COC(=O)CCCCCCC/C=C\CCCCCCCC)NCCS(=O)(=O)O [PX-13, TES Trioleate] ?
2200

What do we get for CCCCC/C=C\C/C=C\CCCCCCCC(=O)OC(C(=O)O)C(OC(=O)CCCCCCC/C=C\C/C=C\CCCCC)C(=O)O (stereo not drawn) [PX-9] ?
7500

***
Recall the recorded IC50 for CCCCCCCC/C=C\CCCCCCCC(=O)OCC(N)(COC(=O)CCCCCCC/C=C\CCCCCCCC)COC(=O)CCCCCCC/C=C\CCCCCCCC [PX-12] with PLA2 and state it.
1500

Cited source for all entries: patent EP0490919B1
